assay-system: Aminopeptidase N (Plasmodium falciparum (isolate 3D7)) (UniProt O96935)
Sequence (O96935 whole entry, looked up): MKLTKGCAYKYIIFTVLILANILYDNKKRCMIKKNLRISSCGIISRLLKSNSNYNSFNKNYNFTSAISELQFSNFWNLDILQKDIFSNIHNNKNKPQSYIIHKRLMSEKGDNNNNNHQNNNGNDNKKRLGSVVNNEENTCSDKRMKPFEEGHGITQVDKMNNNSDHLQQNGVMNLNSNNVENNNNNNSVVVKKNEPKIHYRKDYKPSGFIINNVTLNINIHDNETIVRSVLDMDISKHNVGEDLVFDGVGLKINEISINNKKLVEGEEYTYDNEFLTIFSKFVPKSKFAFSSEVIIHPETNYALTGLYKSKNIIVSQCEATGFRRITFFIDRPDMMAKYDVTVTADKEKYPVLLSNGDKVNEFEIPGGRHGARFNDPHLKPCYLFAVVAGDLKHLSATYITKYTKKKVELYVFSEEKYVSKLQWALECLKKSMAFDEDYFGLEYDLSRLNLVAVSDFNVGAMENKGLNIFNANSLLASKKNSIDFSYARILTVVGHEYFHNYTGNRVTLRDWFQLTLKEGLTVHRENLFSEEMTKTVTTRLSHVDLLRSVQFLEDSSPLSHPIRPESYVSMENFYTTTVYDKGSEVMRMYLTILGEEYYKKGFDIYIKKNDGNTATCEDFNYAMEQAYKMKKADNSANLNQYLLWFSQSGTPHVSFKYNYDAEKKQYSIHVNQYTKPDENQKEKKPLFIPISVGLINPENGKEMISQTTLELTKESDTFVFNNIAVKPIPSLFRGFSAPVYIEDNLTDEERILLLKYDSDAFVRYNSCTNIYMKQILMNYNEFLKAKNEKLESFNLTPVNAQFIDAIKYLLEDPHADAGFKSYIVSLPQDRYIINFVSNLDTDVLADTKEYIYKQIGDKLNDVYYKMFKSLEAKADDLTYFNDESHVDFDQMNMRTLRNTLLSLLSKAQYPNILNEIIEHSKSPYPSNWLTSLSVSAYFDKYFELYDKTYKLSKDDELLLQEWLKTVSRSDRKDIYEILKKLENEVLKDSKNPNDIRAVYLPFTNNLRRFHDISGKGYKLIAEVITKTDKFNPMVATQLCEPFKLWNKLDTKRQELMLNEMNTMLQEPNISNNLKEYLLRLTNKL
assay: malaria alanyl aminopeptidase activity blockers – biochemical, fluorogenic H-Leu-NHMec substrate, 1536-well (AID 1445);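 also: plate controls were DMSO full reaction for no effect and no enzyme background for full effect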
condition-details: recombinant M1AAP, H-Leu-NHMec fluorogenic kinetic assay; at 30 µM, stronger effect = higher value unless noted
In all, about 220,000 compounds went through this assay and about 910 (0.41%) were called active. The sample as a whole holds a higher share of actives than the screen did. Entries with a potency or affinity are not part of this list.
Each entry below carries its recorded inhibition.

compound-smiles: Cc1ccc(N2NC(=O)/C(=C/c3ccc(-c4ccc(Cl)c(C(=O)O)c4)o3)C2=O)cc1
assay-system: Aminopeptidase N (Plasmodium falciparum (isolate 3D7)) (UniProt O96935)
unit-spec: %
inhibition: 5.62

compound-smiles: COc1ccc(C)cc1-n1nnnc1SC/C(O)=C(\C#N)c1nc2ccccc2[nH]1
assay-system: Aminopeptidase N (Plasmodium falciparum (isolate 3D7)) (UniProt O96935)
unit-spec: %
inhibition: -0.98

compound-smiles: OCCN1CCN(CCOc2ccccc2-c2ccccc2)CC1
assay-system: Aminopeptidase N (Plasmodium falciparum (isolate 3D7)) (UniProt O96935)
unit-spec: %
inhibition: -1.14

compound-smiles: O=C(O)c1cc(-c2ccc(/C=C3\NC(=O)N(c4ccccc4)C3=O)o2)ccc1Cl
assay-system: Aminopeptidase N (Plasmodium falciparum (isolate 3D7)) (UniProt O96935)
unit-spec: %
inhibition: 18.7

compound-smiles: Cn1c(=O)c2c(nc(NCc3ccccc3)n2CC(=O)NCc2ccccc2)n(C)c1=O
assay-system: Aminopeptidase N (Plasmodium falciparum (isolate 3D7)) (UniProt O96935)
unit-spec: %
inhibition: -6.75
